- assay_target: human GLP-1 receptor (Homo sapiens, UniProt P43220)
- Construct: expressed in transfected cells
- Sequence (P43220 24-463): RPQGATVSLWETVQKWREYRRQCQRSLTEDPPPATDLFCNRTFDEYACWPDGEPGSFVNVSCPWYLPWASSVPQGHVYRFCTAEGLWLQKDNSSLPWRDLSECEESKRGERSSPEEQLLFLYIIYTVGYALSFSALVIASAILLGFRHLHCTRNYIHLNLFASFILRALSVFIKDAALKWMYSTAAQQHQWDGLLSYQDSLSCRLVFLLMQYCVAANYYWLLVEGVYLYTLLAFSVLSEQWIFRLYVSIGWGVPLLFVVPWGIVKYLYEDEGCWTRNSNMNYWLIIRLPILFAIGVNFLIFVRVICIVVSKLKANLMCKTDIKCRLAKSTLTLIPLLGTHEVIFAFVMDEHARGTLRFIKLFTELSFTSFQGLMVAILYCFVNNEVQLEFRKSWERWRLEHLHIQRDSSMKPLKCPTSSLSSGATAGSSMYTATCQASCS
- experiment_description: GLP-1R cAMP Assay
- Type: cell-based
- details: cAMP accumulation in CHO cells stably overexpressing the human GLP-1 receptor; 30 min treatment; HitHunter cAMP kit; read-out: EC50
result_type: EC50

Requested field: EC50. Item: O=C(O)c1ccc2nc(CN3CCN(Cc4cc5ccc(-c6ccc(Cl)cc6F)cc5o4)CC3)n(C[C@@H]3CCO3)c2c1
> 500 nM

Requested field: EC50. Item: O=C(O)c1cc(F)c2nc(CN3CCC(Oc4ccnc(COc5ccc(Cl)cc5F)n4)CC3)n(C[C@@H]3CCO3)c2c1
< 50 nM

Requested field: EC50. Item: CCn1cncc1Cn1c(CN2CCC(Cc3cccc(COc4ccc(F)cc4C#N)c3)CC2)nc2ccc(C(=O)O)cc21
< 50 nM

Requested field: EC50. Item: N#Cc1ccc(OCc2nccc(O[C@H]3CCN(Cc4nc5ccc(C(=O)O)cc5n4C[C@@H]4CCO4)[C@@H](CF)C3)n2)c(F)c1
< 50 nM

---

- assay_target: human GLP-1 receptor (Homo sapiens)
- Construct: expressed in transfected cells
- experiment_description: GLP-1R cAMP Assay
- Assay type: cell-based
- details: cAMP accumulation in CHO cells stably overexpressing the human GLP-1 receptor; 30 min treatment; HitHunter cAMP kit; read-out: EC50
result_type: EC50

Requested field: EC50. Item: CCn1cncc1Cn1c(CN2CCC(Cc3ccc(COc4ccc(Cl)cc4Cl)o3)CC2)nc2ccc(C(=O)O)nc21
< 50 nM

Requested field: EC50. Item: N#Cc1ccc(OCc2ccc(C(=O)N3CCN(Cc4nc5ccc(C(=O)O)cc5n4C[C@@H]4CCO4)CC3)o2)c(F)c1
> 500 nM

Requested field: EC50. Item: N#Cc1ccc(OCc2nccc(O[C@H]3C[C@H]4C[C@@H]3CN4Cc3nc4ccc(C(=O)O)cc4n3C[C@@H]3CCO3)n2)c(F)c1
< 50 nM

Requested field: EC50. Item: O=C(c1ccc(-c2nnn[nH]2)nc1)N1CCC(Cc2ccc(COc3ccc(Cl)cc3Cl)o2)CC1
> 500 nM

Requested field: EC50. Item: O=C(O)c1ccc2nc(CN3CCC(Cc4cccc(COc5ccc(C6CC6)cc5Cl)n4)CC3)n(C[C@@H]3CCO3)c2c1
< 50 nM

Requested field: EC50. Item: N#Cc1cc(Cl)ccc1OCc1nccc(OC2CCN(Cc3nc4ccc(C(=O)O)cc4n3C[C@@H]3CCO3)CC2)n1
< 50 nM

Requested field: EC50. Item: CCn1cncc1Cn1c(CN2CCC(Oc3cccc(COc4ccc(Cl)cc4C#N)n3)CC2)nc2ccc(C(=O)O)cc21
< 50 nM

Requested field: EC50. Item: N#Cc1ccc(COc2cccc(N3CCN(C(=O)c4ccc(-c5nnn[nH]5)nc4)CC3)n2)c(F)c1
50 to 500 nM

Requested field: EC50. Item: N#Cc1ccc(COc2cccc(C3CCN(C(=O)c4ccc(C(=O)O)nc4)CC3)n2)c(F)c1
> 500 nM

Requested field: EC50. Item: O=C(O)c1ccc2nc(CN3CCN(C(=O)c4cccc(Oc5ccc(Cl)cc5)c4)CC3)n(C[C@@H]3CCO3)c2c1
> 500 nM

Requested field: EC50. Item: O=C(O)c1cc(F)c2nc(CN3CCC(Oc4ccnc(COc5ccc(Cl)cc5Cl)n4)CC3)n(C[C@@H]3CCO3)c2c1
< 50 nM

Requested field: EC50. Item: O=C(O)c1ccc2nc(CN3CCC(Cc4cnc(COc5ccc(Cl)cc5Cl)o4)CC3)n(C[C@@H]3CCO3)c2n1
< 50 nM

Requested field: EC50. Item: C[C@H]1C[C@@H](Oc2ccnc(COc3ccc(Cl)cc3C#N)n2)CCN1Cc1nc2ccc(C(=O)O)cc2n1C[C@@H]1CCO1
< 50 nM

Requested field: EC50. Item: N#Cc1cc(F)ccc1OCc1cccc(CC2CCN(Cc3nc4ccc(C(=O)O)cc4n3C[C@@H]3CCO3)CC2)c1
< 50 nM

---

- assay_target: human GLP-1 receptor (Homo sapiens)
- Construct: expressed in transfected cells
- experiment_description: GLP-1R cAMP Assay
- Type: cell-based
- details: cAMP accumulation in CHO cells stably overexpressing the human GLP-1 receptor; 30 min treatment; HitHunter cAMP kit; read-out: EC50
pEC50: −log10 of the molar value.
Hi there, I'd appreciate the recorded pEC50 for every entry that follows.

Requested field: pEC50. Item: CCn1cncc1Cn1c(CN2CCC(Cc3cnc(COc4ncc(C5CC5)cc4Cl)o3)CC2)nc2ccc(C(=O)O)cc21
> 7.30

Requested field: pEC50. Item: Cc1ccc(N(C)c2cccc(CC3CCN(Cc4nc5ccc(C(=O)O)cc5n4C[C@@H]4CCO4)CC3)c2)c(Cl)c1
> 7.30

Requested field: pEC50. Item: Cc1ccc(Oc2cccc(C(=O)N3CCN(Cc4nc5ccc(C(=O)O)cc5n4C[C@@H]4CCO4)CC3)c2)c(F)c1
< 6.30

Requested field: pEC50. Item: CCn1cncc1Cn1c(CN2CCC(Cc3ccc(COc4ccc(Cl)cc4Cl)o3)CC2)nc2ccc(C(=O)O)cc21
> 7.30

Requested field: pEC50. Item: Cc1ccc(OCc2ccc(F)c(CC3CCN(Cc4nc5ccc(C(=O)O)cc5n4C[C@@H]4CCO4)CC3)n2)c(Cl)c1
> 7.30

Requested field: pEC50. Item: Cn1cncc1Cn1c(CN2CCC(Oc3cccc(COc4ccc(Cl)cc4Cl)c3)CC2)nc2ccc(C(=O)O)cc21
> 7.30

Requested field: pEC50. Item: O=C(O)c1ccc2nc(CN3CCC(Cc4cccc(COc5ccc(Cl)cc5Cl)c4)CC3)n(C[C@@H]3CCCO3)c2c1
> 7.30

Requested field: pEC50. Item: COC1(Cn2c(CN3CCC(Oc4ccnc(COc5ccc(Cl)cc5F)c4)CC3)nc3ccc(C(=O)O)cc32)CC1
> 7.30

Requested field: pEC50. Item: CCn1cncc1Cn1c(CN2CCC(Oc3cccc(COc4ccc(Cl)cc4Cl)n3)CC2)nc2ccc(C(=O)O)cc21
> 7.30

Requested field: pEC50. Item: O=C(O)c1cc(F)c2nc(CN3CCC(Oc4ccnc(COc5ccc(F)cc5Cl)n4)CC3)n(CC3(CF)CC3)c2c1
> 7.30

Requested field: pEC50. Item: COC(=O)c1ccc2nc(CN3CCN(C(=O)c4ccc(COc5cccc(Cl)c5C)o4)CC3)n(C[C@@H]3CCO3)c2c1
< 6.30

Requested field: pEC50. Item: C[C@H]1C[C@@H](Oc2ccnc(COc3ccc(F)cc3C#N)n2)CCN1Cc1nc2ccc(C(=O)O)cc2n1C[C@@H]1CCO1
> 7.30

Requested field: pEC50. Item: CCn1cncc1Cn1c(CN2CCC([C@H](F)c3cccc(COc4ccc(Cl)cc4Cl)c3)CC2)nc2ccc(C(=O)O)cc21 (single isomer, unassigned)
> 7.30

Requested field: pEC50. Item: Cc1cc(C(C)C)ccc1Oc1cccc(C(=O)N2CCN(Cc3nc4ccc(C(=O)O)cc4n3C[C@@H]3CCO3)CC2)c1
6.30 to 7.30

Requested field: pEC50. Item: CCn1cncc1Cn1c(CN2CCC(Cc3cccc(COc4ccc(Cl)cc4Cl)c3)CC2)nc2ccc(C(=O)O)cc21
> 7.30

Requested field: pEC50. Item: CCn1cncc1Cn1c(CN2CCN(C(=O)c3cnc(COc4ccc(Cl)cc4Cl)o3)C[C@@H]2C)nc2ccc(C(=O)O)cc21
> 7.30

Requested field: pEC50. Item: COC(=O)c1ccc2nc(CN3CCN(C(=O)c4cccc(Oc5ccc(C)cc5Cl)c4)CC3)n(C[C@@H]3CCO3)c2c1
< 6.30

Requested field: pEC50. Item: O=C(O)c1ccc2nc(CN3CCC(Oc4ccnc(COc5ccc(Cl)cc5Cl)c4)CC3)n(C[C@@H](O)CCO)c2c1
> 7.30

Requested field: pEC50. Item: Cc1ccc(N(C)c2cccc(C(=O)N3CC4CCC(C3)N4Cc3nc4ccc(C(=O)O)cc4n3C[C@@H]3CCO3)c2)c(Cl)c1
6.30 to 7.30

Requested field: pEC50. Item: Cn1cncc1Cn1c(CN2CCC(Oc3cccc(COc4ccc(Cl)cc4F)n3)CC2)nc2ccc(C(=O)O)cc21
> 7.30

Requested field: pEC50. Item: N#Cc1cc(F)c(OCc2nccc(OC3CCN(Cc4nc5ccc(C(=O)O)cc5n4C[C@@H]4CCO4)CC3)n2)cc1F
> 7.30

Requested field: pEC50. Item: C[C@H]1C[C@@H](Oc2nc(COc3ccc(C#N)cc3F)ncc2F)CCN1Cc1nc2ccc(C(=O)O)cc2n1C[C@@H]1CCO1
> 7.30

Requested field: pEC50. Item: CCn1cncc1Cn1c(CN2CCC(Oc3cccc(COc4ccc(Cl)cc4F)n3)CC2)nc2ccc(C(=O)O)cc21
> 7.30

Requested field: pEC50. Item: N#Cc1cc(Cl)ccc1OCc1cccc(OC2CCN(Cc3nc4ccc(C(=O)O)cc4n3Cc3ccno3)CC2)n1
< 6.30

Requested field: pEC50. Item: N#Cc1cc(Cl)ccc1OCc1cccc(OC2CCN(Cc3nc4ccc(C(=O)O)cc4n3Cc3ncco3)CC2)n1
< 6.30

Requested field: pEC50. Item: O=C(O)c1ccc2nc(CN3CCC(Cc4cc(F)cc(COc5ccc(Cl)cc5Cl)c4)CC3)n(C[C@@H]3CCO3)c2c1
6.30 to 7.30

Requested field: pEC50. Item: Cc1ccccc1OCc1ccc(C(=O)N2CCN(Cc3nc4ccc(C(=O)O)cc4n3C[C@@H]3CCO3)CC2)o1
< 6.30
